These data points were gathered from patent US20200079833A1.

Attribute: Primary assay EC50 (cAMP), Gluc-R, first run
test-system: glucagon receptor (GCGR) (human, UniProt P47871 26-477)
Sequence (P47871 26-477): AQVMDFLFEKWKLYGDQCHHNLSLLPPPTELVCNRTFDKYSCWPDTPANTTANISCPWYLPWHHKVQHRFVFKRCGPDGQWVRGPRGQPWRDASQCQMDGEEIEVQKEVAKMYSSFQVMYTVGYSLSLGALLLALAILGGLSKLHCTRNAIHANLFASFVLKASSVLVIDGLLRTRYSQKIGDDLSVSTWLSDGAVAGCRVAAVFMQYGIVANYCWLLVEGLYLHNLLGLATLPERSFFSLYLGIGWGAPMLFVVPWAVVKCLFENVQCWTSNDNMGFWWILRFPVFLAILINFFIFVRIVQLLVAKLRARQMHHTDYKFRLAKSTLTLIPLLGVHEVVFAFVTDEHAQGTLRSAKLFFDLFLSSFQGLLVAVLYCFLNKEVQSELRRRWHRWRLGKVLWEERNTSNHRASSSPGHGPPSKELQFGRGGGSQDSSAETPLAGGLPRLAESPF
assay-comment: cell-based or functional assay
Non-standard residues stand in square brackets, D forms with d. Groups on a side chain read outwards from the residue. Primed or numbered codes have the meaning given here. No end group written: not given here. *: point of attachment. Stearoyl = CCCCCCCCCCCCCCCCCC(=O)*; αMeF = C[C@](N)(Cc1ccccc1)C(=O)O; αMeK = C[C@](N)(CCCCN)C(=O)O; Lauroyl = CCCCCCCCCCCC(=O)*; αMeS = C[C@](N)(CO)C(=O)O; PEG2′ = not defined here; Aib = CC(C)(N)C(=O)O
Just the number please, in µM, no unit attached.

Lookup result for H[Aib]EGS[αMeF]TSDV[αMeS]S[αMeF]LEGEAA[αMeK]E[αMeF]IA[αMeF]VVK([PEG2′-PEG2′-PEG2′-Lauroyl])GG-NH2 [SEQ ID NO 172] ; measured Primary assay EC50 (cAMP), Gluc-R, first run: 0.026

Lookup result for H[Aib]EGS[αMeF]TSDV[αMeS]S[αMeF]LEGEAA[αMeK]E[αMeF]IA[αMeF]VVK([PEG2′-PEG2′-Lauroyl])GG-NH2 [SEQ ID NO 171] ; measured Primary assay EC50 (cAMP), Gluc-R, first run: 0.027

Lookup result for H[Aib]EGS[αMeF]TSDV[αMeS]S[αMeF]LEGEAAK([PEG2′-PEG2′-PEG2′-Stearoyl])E[αMeF]IA[αMeF]VV[αMeK]GG-NH2 [SEQ ID NO 163] ; measured Primary assay EC50 (cAMP), Gluc-R, first run: 0.025

Lookup result for H[Aib]EGS[αMeF]TSDV[αMeS]S[αMeF]LEGEAA[αMeK]E[αMeF]IA[αMeF]VVK([PEG2′-PEG2′-PEG2′-Stearoyl])GG-NH2 [SEQ ID NO 190] ; measured Primary assay EC50 (cAMP), Gluc-R, first run: 0.026
